Consider the following compounds; for each one, report its inhibition at 10 µM.
- system name: HDAC6 enzyme (Homo sapiens, UniProt Q9UBN7)
- Construct: prepared by transducing full length HDAC6 gene into Sf-9 insect cells; GST; purchased SignalChem; host or cells: Sf-9 insect cells
- Sequence (Q9UBN7 whole entry): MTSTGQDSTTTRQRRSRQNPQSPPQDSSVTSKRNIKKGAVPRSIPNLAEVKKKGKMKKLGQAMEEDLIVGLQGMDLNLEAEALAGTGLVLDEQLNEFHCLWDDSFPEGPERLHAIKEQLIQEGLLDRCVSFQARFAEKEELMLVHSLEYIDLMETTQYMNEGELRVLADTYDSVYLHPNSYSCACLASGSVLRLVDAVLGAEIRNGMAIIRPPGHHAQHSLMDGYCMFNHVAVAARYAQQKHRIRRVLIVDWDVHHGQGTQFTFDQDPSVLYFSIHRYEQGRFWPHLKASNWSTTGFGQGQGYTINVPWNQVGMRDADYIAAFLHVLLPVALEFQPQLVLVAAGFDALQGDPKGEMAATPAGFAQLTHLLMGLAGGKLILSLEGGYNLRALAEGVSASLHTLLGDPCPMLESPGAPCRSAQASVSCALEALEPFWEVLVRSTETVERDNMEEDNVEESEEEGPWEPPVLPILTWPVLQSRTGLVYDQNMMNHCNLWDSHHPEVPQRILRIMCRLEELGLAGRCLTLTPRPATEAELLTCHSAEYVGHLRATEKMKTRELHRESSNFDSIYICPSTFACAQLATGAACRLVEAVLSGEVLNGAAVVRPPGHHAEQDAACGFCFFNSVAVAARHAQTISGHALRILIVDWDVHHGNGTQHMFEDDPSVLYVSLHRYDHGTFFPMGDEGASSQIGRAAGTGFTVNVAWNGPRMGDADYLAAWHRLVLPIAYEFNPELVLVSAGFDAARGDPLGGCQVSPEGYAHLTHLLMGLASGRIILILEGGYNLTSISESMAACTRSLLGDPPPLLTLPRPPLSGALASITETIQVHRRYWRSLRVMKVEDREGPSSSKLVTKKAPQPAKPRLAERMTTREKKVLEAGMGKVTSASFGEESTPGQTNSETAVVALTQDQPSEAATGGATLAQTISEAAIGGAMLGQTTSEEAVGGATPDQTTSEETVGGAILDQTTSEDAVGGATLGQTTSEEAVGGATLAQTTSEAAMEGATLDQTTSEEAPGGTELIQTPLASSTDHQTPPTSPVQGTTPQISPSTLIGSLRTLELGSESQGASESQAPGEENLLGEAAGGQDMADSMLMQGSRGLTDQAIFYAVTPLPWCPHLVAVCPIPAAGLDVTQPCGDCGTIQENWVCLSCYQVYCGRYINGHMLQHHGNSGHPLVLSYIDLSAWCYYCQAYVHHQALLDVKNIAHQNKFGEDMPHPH
- measurement protocol: HDAC6 enzyme inhibitory assay (HDAC-Glo I/II Assay kit, luminescence)
- Assay type: biochemical
- assay context: 10 μM test compound; wells without enzyme = 100% inhibition; read-out: HDAC6 inhibitory rate (%) (10 μM)
- Experimental: HDAC6 Enzyme Inhibitory Assay HDAC6 enzyme prepared by transducing full length HDAC6 gene into Sf-9 insect cells and purifying by GST affinity column were purchased from SignalChem. Using this enzyme, HDAC6 enzyme inhibitory activities of the compound of the present invention were evaluated. […] HDAC6 enzyme inhibitory activity of the compound of the present invention was measured using HDAC-Glo™ I/II Assay kit (Promega) according to the following experimental method. […]
Give just the numeric value; % need not be written.

Incoming: Consider the compound O=C1c2cc(-c3nnc(C(F)F)o3)ccc2OCN1Cc1ccccc1 and give its recorded inhibition at 10 µM.
Outgoing: 71

Incoming: Consider the compound CN1C(=O)c2cc(-c3nnc(C(F)F)o3)ccc2OC1(C)c1ccc(F)c(F)c1 (stereo not drawn) [Example 32b] and give its recorded inhibition at 10 µM.
Outgoing: 100

Incoming: Consider the compound CCN1C(=O)c2cc(-c3nnc(C(F)F)o3)ccc2CN1c1ccc(F)cc1 [Example 46b] and give its recorded inhibition at 10 µM.
Outgoing: 100
